target: Inadl_9, Q8NI35; test: holdup assay; design: key: below the threshold = too weak to quantify, mostly under pKd 3.1 to 4; conditions: plain residues with an end cap or a label only (N-terminal biotin on a linker: ahx)
Sequence (Q8NI35 1530-1615): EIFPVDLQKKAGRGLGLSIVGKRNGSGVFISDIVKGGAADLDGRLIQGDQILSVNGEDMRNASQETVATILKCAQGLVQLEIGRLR
measured_metric: pKd

> print(dat)
                        binder  measured.metric       endpoint.value
1   APSRKLNTEI [TIAM1, Q13009]              pKd  below the threshold
2     TESNLQTSSC [CGN, Q9P2M7]              pKd  below the threshold
3  TEAKLTETNA [MYO18A, Q92614]              pKd  below the threshold
4   QDEKVKESYV [ABCA1, O95477]              pKd                 4.29
5  HTHSYIETHV [CNKSR2, Q8WXI2]              pKd                 3.64
6    QNTDDVQTSF [ACE2, Q9BYF1]              pKd  below the threshold
7    QPRTWLQSPV [RTKN, Q9BST9]              pKd  below the threshold
8  TQKFRASTAL [FRMPD1, Q5SYB0]              pKd  below the threshold
9  EKQAKGDTEF [CACYBP, Q9HB71]              pKd  below the threshold
